ASSAY_TARGET: PCSK9 (Homo sapiens, UniProt Q8NBP7)
Sequence (Q8NBP7 153-692): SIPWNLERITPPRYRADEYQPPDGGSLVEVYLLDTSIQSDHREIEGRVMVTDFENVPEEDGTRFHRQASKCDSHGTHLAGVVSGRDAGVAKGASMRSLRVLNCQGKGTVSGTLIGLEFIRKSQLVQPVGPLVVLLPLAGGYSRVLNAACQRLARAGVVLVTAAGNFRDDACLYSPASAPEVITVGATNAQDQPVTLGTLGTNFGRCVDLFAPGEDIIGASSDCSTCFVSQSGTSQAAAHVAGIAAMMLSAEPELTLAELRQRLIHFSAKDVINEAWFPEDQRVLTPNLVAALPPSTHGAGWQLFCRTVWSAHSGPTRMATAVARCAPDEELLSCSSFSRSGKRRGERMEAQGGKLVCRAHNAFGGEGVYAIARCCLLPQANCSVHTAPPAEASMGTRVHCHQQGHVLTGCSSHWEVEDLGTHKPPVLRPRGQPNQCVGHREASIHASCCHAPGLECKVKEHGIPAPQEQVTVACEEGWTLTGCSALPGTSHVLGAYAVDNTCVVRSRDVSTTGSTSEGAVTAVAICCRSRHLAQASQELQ
TEST_METHOD_NOTES: BODIPY-LDL uptake assay in HepG2 cells
Format: cell-based
MEASUREMENT_PARAMETERS: 10 μM test compound, 5 μg/ml PCSK9, BODIPY-LDL
READOUT_KIND: % increase in LDL Uptake (%)

COMPOUND	READOUT_KIND	RECORDED_MEASUREMENT
O=C(c1ccc(C2(O)CNC2)cc1)N1CCC(c2ccc(C(F)(F)F)cc2)CC1 [Example 155]	% increase in LDL Uptake	0
O=S(=O)(c1ccc(C2(O)COC2)cc1)N1CC2CN(c3ccc(C(F)(F)F)cc3)CC2C1 (centres unmarked) [Example 98]	% increase in LDL Uptake	124
COC1(c2ccc(C(=O)N3CCC(c4ccc(C(F)(F)F)nc4)CC3)cc2)COC1 [Example 213]	% increase in LDL Uptake	0
O=C(c1ccc(C2(O)COC2)cc1)N1CCc2nc(-c3ccc(C(F)(F)F)cc3)sc2C1 [Example 175]	% increase in LDL Uptake	0
COC1(c2cccc(C(=O)N3CCCC(c4ccc(C(F)(F)F)cc4)C3)c2)COC1 (centres unmarked) [Example 51]	% increase in LDL Uptake	79
O=C(c1ccc(C2(O)CCOCC2)cc1)N1CCC(c2ccc(C(F)(F)F)cc2)CC1 [Example 142]	% increase in LDL Uptake	77
O=C(c1ccc(C2(OCCO)COC2)cc1)N1CCC(c2ccc(C(F)(F)F)cc2)CC1 [Example 188]	% increase in LDL Uptake	152
CSc1ccc(C2=CC3CN(C(=O)c4ccc(C5(O)COC5)cc4)CC3C2)cc1 (centres unmarked) [Example 131]	% increase in LDL Uptake	57

====

ASSAY_TARGET: PCSK9 (Homo sapiens, UniProt Q8NBP7)
TEST_METHOD_NOTES: BODIPY-LDL uptake assay in HepG2 cells
Format: cell-based
MEASUREMENT_PARAMETERS: 1 μM test compound, 5 μg/ml PCSK9, BODIPY-LDL

COMPOUND	UNIT_STRING	% increase in LDL Uptake
O=C(c1ccc(C2(O)COC2)cc1)N1CCC(c2ccc(OC(F)(F)F)cc2)CC1 [Example 22]	%	0
CCSCCOC1(c2ccc(C(=O)N3CCC(c4ccc(C(F)(F)F)cc4)CC3)cc2)COC1 [Example 189]	%	0
Cc1ccc(C2=CC3CN(C(=O)c4ccc(C5(O)COC5)cc4)CC3C2)cc1 (centres unmarked) [Example 130]	%	−19
CCOC1(c2ccc(C(=O)N3CCN(c4ccc(C(F)(F)F)cn4)CC3)cc2)COC1 [Example 219]	%	4
O=C(c1ccc(C2(O)COC2)cc1)N1CCCC(c2ccc(C(F)(F)F)cc2)C1 (centres unmarked) [Example 34]	%	27
COC1(c2ccc(C(=O)N3CCC(c4ccc(C(F)(F)F)cc4)CC3)cc2)CCOCC1 [Example 143]	%	0
O=C(c1ccc(C2(O)CCOCC2)cc1)N1CCC(c2ccc(C(F)(F)F)cc2)CC1 [Example 142]	%	0
COC(=O)c1ccc(C2(O)CC3CN(C(=O)c4ccc(C5(O)COC5)cc4)CC3C2)cc1 (centres unmarked) [Example 198]	%	−8

====

Quick reference for % increase in LDL Uptake among some compounds
ASSAY_TARGET: PCSK9 (Homo sapiens, UniProt Q8NBP7)
TEST_METHOD_NOTES: BODIPY-LDL uptake assay in HepG2 cells
Format: cell-based
MEASUREMENT_PARAMETERS: 10 μM test compound, 5 μg/ml PCSK9, BODIPY-LDL
READOUT_KIND: % increase in LDL Uptake (%)

COMPOUND	ASSAY_TARGET	READOUT_KIND	UNIT_STRING	RECORDED_MEASUREMENT
O=C(c1ccc(C2(O)COC2)cc1)N1CC2=C(C1)CN(c1ccc(C(F)(F)F)cc1)C2	PCSK9 (Homo sapiens, UniProt Q8NBP7)	% increase in LDL Uptake	%	127
O=S(=O)(c1ccc(C2(O)COC2)cc1)N1CCN(c2ccc(C(F)(F)F)cc2)CC1	PCSK9 (Homo sapiens, UniProt Q8NBP7)	% increase in LDL Uptake	%	63
O=C(c1cccc(C2(O)COC2)c1)N1CCCC(c2ccc(C(F)(F)F)cc2)C1 (centres unmarked)	PCSK9 (Homo sapiens, UniProt Q8NBP7)	% increase in LDL Uptake	%	142
CCOC1(c2ccc(C(=O)N3CC4=C(C3)CN(c3ccc(C(F)(F)F)cc3)C4)cc2)COC1	PCSK9 (Homo sapiens, UniProt Q8NBP7)	% increase in LDL Uptake	%	30
O=C(O)c1cc(C2(O)COC2)ccc1N1CCC(c2ccc(C(F)(F)F)cc2)CC1	PCSK9 (Homo sapiens, UniProt Q8NBP7)	% increase in LDL Uptake	%	13
CC(C)(CCCCCOC1(c2ccc(C(=O)N3CCC(c4ccc(C(F)(F)F)cc4)CC3)cc2)COC1)C(=O)O	PCSK9 (Homo sapiens, UniProt Q8NBP7)	% increase in LDL Uptake	%	29
CCOC1(c2ccc(C(=O)N3CC4CN(c5ccc(C(F)(F)F)cc5)CC4C3)cc2)COC1 (centres unmarked)	PCSK9 (Homo sapiens, UniProt Q8NBP7)	% increase in LDL Uptake	%	21
COc1ccc(C2CCN(C(=O)c3ccc(C4(O)COC4)cc3)CC2)cc1Cl	PCSK9 (Homo sapiens, UniProt Q8NBP7)	% increase in LDL Uptake	%	21
CCOC1(c2ccc(C(=O)N3CCC(c4ccc(C(F)(F)F)cc4)CC3)cc2)COC1	PCSK9 (Homo sapiens, UniProt Q8NBP7)	% increase in LDL Uptake	%	12
O=C(c1cccc(C2(O)COC2)c1)N1CC2CN(c3ccc(C(F)(F)F)cc3)CC2C1 (centres unmarked)	PCSK9 (Homo sapiens, UniProt Q8NBP7)	% increase in LDL Uptake	%	320
O=C(c1ccc(C2(O)COC2)cc1)N1CCC(c2ccc(C(F)F)cc2)CC1	PCSK9 (Homo sapiens, UniProt Q8NBP7)	% increase in LDL Uptake	%	0
[2H]C([2H])([2H])OC1(c2ccc(C(=O)N3CCC(c4ccc(C(F)(F)F)cc4)CC3)cc2)COC1	PCSK9 (Homo sapiens, UniProt Q8NBP7)	% increase in LDL Uptake	%	98
O=C(c1ccc(C2(OCCO)COC2)cc1)N1CC2CN(c3ccc(C(F)(F)F)cc3)CC2C1 (centres unmarked)	PCSK9 (Homo sapiens, UniProt Q8NBP7)	% increase in LDL Uptake	%	32
COC1(c2cccc(C(=O)N3CCC(c4ccc(C(F)F)cc4)CC3)c2)COC1	PCSK9 (Homo sapiens, UniProt Q8NBP7)	% increase in LDL Uptake	%	9
O=C(c1ccc(C2(OCC3CC3)COC2)cc1)N1CC2CN(c3ccc(C(F)(F)F)cc3)CC2C1 (centres unmarked)	PCSK9 (Homo sapiens, UniProt Q8NBP7)	% increase in LDL Uptake	%	28
O=C(c1ccc(C2(O)COC2)cc1)N1CCN(c2ccc(C(F)(F)F)nc2)CC1	PCSK9 (Homo sapiens, UniProt Q8NBP7)	% increase in LDL Uptake	%	5
COC1(c2ccc(NC(=O)N3CCC(c4ccc(C(F)(F)F)cc4)CC3)cc2)COC1	PCSK9 (Homo sapiens, UniProt Q8NBP7)	% increase in LDL Uptake	%	76
CCOC1(c2cccc(C(=O)N3CC4CN(c5ccc(C(F)(F)F)cc5)CC4C3)c2)COC1 (centres unmarked)	PCSK9 (Homo sapiens, UniProt Q8NBP7)	% increase in LDL Uptake	%	51
O=C(c1ccc(C2(O)COC2)cc1)N1CCC(c2ccccc2)CC1	PCSK9 (Homo sapiens, UniProt Q8NBP7)	% increase in LDL Uptake	%	13
COC1(c2ccc(C(=O)N3CCC(c4ccc(C(F)(F)F)cc4)CC3)cc2)CCN(C(C)=O)CC1	PCSK9 (Homo sapiens, UniProt Q8NBP7)	% increase in LDL Uptake	%	42
COC1(c2ccc(C(=O)N3CCCN(c4ccc(C(F)(F)F)cc4)CC3)cc2)COC1	PCSK9 (Homo sapiens, UniProt Q8NBP7)	% increase in LDL Uptake	%	29
O=C(c1ccc(C2(O)COC2)cc1)N1CCC(c2ccc(C(F)(F)F)c(Cl)c2)CC1	PCSK9 (Homo sapiens, UniProt Q8NBP7)	% increase in LDL Uptake	%	30
COC1(c2ccc(C(=O)N3CC4CC(OC)(c5ccc(C(F)(F)F)cc5)CC4C3)cc2)COC1 (centres unmarked)	PCSK9 (Homo sapiens, UniProt Q8NBP7)	% increase in LDL Uptake	%	−8
[2H]C([2H])([2H])OC1(c2cccc(C(=O)N3CCC(c4ccc(C(F)F)cc4)CC3)c2)COC1	PCSK9 (Homo sapiens, UniProt Q8NBP7)	% increase in LDL Uptake	%	0
COc1ccc(C2CCN(C(=O)c3ccc(C4(O)COC4)cc3)CC2)cc1F	PCSK9 (Homo sapiens, UniProt Q8NBP7)	% increase in LDL Uptake	%	8
O=C(c1ccc(C2(O)COC2)cc1)N1CCc2cc(-c3ccc(C(F)(F)F)cc3)ccc21	PCSK9 (Homo sapiens, UniProt Q8NBP7)	% increase in LDL Uptake	%	0
COC1(c2ccc(C(=O)N3CC4CN(c5ccc(C(F)(F)F)cn5)CC4C3)cc2)COC1 (centres unmarked)	PCSK9 (Homo sapiens, UniProt Q8NBP7)	% increase in LDL Uptake	%	137
COC1(c2cccc(C(=O)N3CCN(c4ccc(C(F)(F)F)cn4)CC3)c2)COC1	PCSK9 (Homo sapiens, UniProt Q8NBP7)	% increase in LDL Uptake	%	28
O=C(c1ccc(C2(O)COC2)cc1)N1CC2CC(c3ccc(C(F)(F)F)cc3)CC2C1 (centres unmarked)	PCSK9 (Homo sapiens, UniProt Q8NBP7)	% increase in LDL Uptake	%	273
O=C(c1ccc(C2(O)COC2)cc1)N1CCC(c2ccc(C(F)(F)F)cn2)CC1	PCSK9 (Homo sapiens, UniProt Q8NBP7)	% increase in LDL Uptake	%	4
O=C(c1ccc(C2(O)CSC2)cc1)N1CCC(c2ccc(C(F)(F)F)cc2)CC1	PCSK9 (Homo sapiens, UniProt Q8NBP7)	% increase in LDL Uptake	%	70
O=C(c1ccc(C2(O)COC2)cc1)N1CCN(c2ccc(C(F)(F)F)cc2)CC1	PCSK9 (Homo sapiens, UniProt Q8NBP7)	% increase in LDL Uptake	%	106
